Assay: logP determination by HPLC (EEC Directive 79/831 Annex V. A8)
Type: physicochemical
Conditions: HPLC, gradient method, acetonitrile/0.1% aqueous phosphoric acid; read-out: logP
The compounds listed here are annotated with their chromatographic logP.

- Compound: "CC1CCN(c2c(-c3ccc(F)cc3Cl)c(Cl)nc3c(CO)cnn23)CC1 [Example 1]"
  chromatographic logP: 3.89
- Compound: "CCC1COC(c2cnn3c(NC(C)C(C)(C)C)c(-c4ccc(F)cc4Cl)c(Cl)nc23)O1 (stereo not drawn) [Example 23]"
  chromatographic logP: 5.7
- Compound: "COCc1cnn2c(N3CCC(C)CC3)c(-c3ccc(F)cc3Cl)c(Cl)nc12 [Example 2]"
  chromatographic logP: 5.09
